Molecular target: Aldose reductase (Oryctolagus cuniculus, UniProt P15122)
Construct: Aldose reductase is isolated by homogenizing the lens in 3 volumes of water; from tissue; host or cells: lens of mature New Zealand rabbits
Assay: Aldose reductase inhibition, in vitro (loss of absorbance at 340 millimicrons, glyceraldehyde substrate, NADPH)
Assay type: biochemical, New Zealand rabbits (lens)
Conditions: 1 × 10^-5 molar concentration of xanthone compound; pH 6.0, 37° C
Reported Metric: inhibition at 10 µM (%)

CCCCCOc1cc([S+](C)[O-])cc2c(=O)c3cc(C(=O)O)ccc3oc12 (stereo not drawn) [CH3 1 n-C5 H11 O] ... 70

A. O=C(O)c1ccc2oc3ccc(S(=O)(=O)CCO)cc3c(=O)c2c1 [HO(CH2)2 2 H]
B. COc1ccc2oc3ccc(C(=O)O)cc3c(=O)c2c1 [CH3 O H]
Among A and B , which shows a numerically higher inhibition at 10 µM result? Which one? Tell me its label.
A
(A: 83%, B: 39%)
